test system: MDA-MB-231; assay: NCI tumour cell line growth inhibition, 48 h
The source made the active and inactive calls. No stated cut-off is given here; in the data, active = GI50 up to about 1.1 µM and inactive = higher.
Outcomes: class 1 (active), class 0 (inactive)

> print(dat)
                                    molecule  class.name
 1  N#CC1=C(Nc2ccccc2)SC=C(c2ccccc2)N=C1NCc1ccccc1     class 0
 2  Cc1ccc(S(=O)(=O)n2ccn3c(=O)cc(C)nc23)cc1     class 0
 3  Nc1nc(Sc2ccc([N+](=O)[O-])c3nonc23)c2nc[nH]c2n1     class 1
 4  COC(=O)C(C(=O)C(=O)Nc1ccccc1C#N)c1nc2ccc([N+](=O)[O-])cc2nc1O (stereo unspecified)     class 0
 5  CCn1c(-c2ccccc2)cs/c1=N\C(P(=O)(O)O)P(=O)(O)O     class 0
 6  CCOC(=O)C(O)(NC(=O)c1ccc(F)cc1)C(F)(F)F (stereo unspecified)     class 0
 7  CC(C)CC(=O)OC[n+]1ccc(-c2c(COC(=O)NC(C)C)c(COC(=O)NC(C)C)c3n2CCC3)cc1     class 0
 8              CCC(=O)N1NC(=O)C(CC)(CC)C1=O     class 0
 9  CC(=O)Nc1c(C)cc2c(nc3n2CCC3O)c1[N+](=O)[O-] (stereo unspecified)     class 0
10  CC1Oc2c(c(=O)oc3ccccc23)[C@@]1(C)CC1C[C@H](C)C(=O)O1 (stereo partly specified)     class 0
11  CCc1cc2c(cc1CCCC(=O)O)CC1(Cc3ccc(C(=O)O)cc3C1)C2 (stereo unspecified)     class 0
12  O=C1/C(=C/c2ccncc2)C(n2cccc2)c2c(Br)sc(Br)c21 (stereo unspecified)     class 0
13  C[C@]12CC[C@@H]3c4ccc(O)cc4CC[C@H]3[C@@H]1C/C(=C\c1ccncc1)[C@@H]2O     class 0
14  COP1(=S)OCC2CCC[C@@H]2O1 (stereo partly specified)     class 0
15  COc1cc([C@H]2CC(=O)C[C@@H](c3cc(OC)c(OC)c(OC)c3)C23C(=O)c2ccccc2C3=O)cc(OC)c1OC     class 0
16  C=C1CC[C@@H](C)[C@](C)(CCc2ccoc2)C/C=C\C=C/1C(=O)O     class 0
17           N#C/C(=C\Nc1ccccn1)C(=O)c1ccco1     class 0
18                O=C(c1ccccn1)c1nnn2ccccc12     class 0
19  CCOC(=O)c1c(-c2ccc(Cl)cc2)c(C#N)c(=S)n(C2OC(COC(C)=O)C(OC(C)=O)C(OC(C)=O)C2OC(C)=O)c1-c1ccccc1 (stereo unspecified)     class 0
20  CC1(C)NC2C(=O)c3c([nH]c4ccccc34)[C@]3(C)CCC1CC23 (stereo partly specified)     class 0
21  CCOC(=O)/C(C#N)=N\Nc1ccc(-n2c(C)nc3ccccc3c2=O)cc1     class 0
22  COc1ccc(C2C(C#N)=C(S)N(C3OC(COC(C)=O)C(OC(C)=O)C(OC(C)=O)C3OC(C)=O)C(c3ccccc3)=C2C(C)=O)cc1 (stereo unspecified)     class 0
23  COc1ccccc1/C=C/C1=NN(c2cccc(S(=O)(=O)O)c2)C2(C1)SCC(=O)N2c1nc2ccccc2s1 (stereo unspecified)     class 0
24  COC(=O)C1=C(C)NC(C)=C(C(=O)OC)C1c1ccc(N=O)cc1     class 0
25                     CCSCCCN(CCCSCC)CCCSCC     class 0
26            CCOC(=O)OC1(c2ccccc2)CCN(C)CC1     class 0
27  CO[C@@H]1C[C@H]2[C@@H]3CC[C@H]([C@@H](C)COC(C)=O)[C@@]3(C)CC[C@@H]2[C@@]2(C)CC[C@H]3C[C@]312     class 0
28  CCOC(=O)C(NC(=O)OCc1ccccc1)C(=O)O (stereo unspecified)     class 0
29  Clc1ccc(OCc2nn3c(CCc4nnc5sc(COc6ccc(Cl)cc6)nn45)nnc3s2)cc1     class 0
30          CN(C)/C=N/[C@@H](C(=O)O)c1ccccc1     class 0
31  C/C(CC(O)(C(F)(F)Cl)C(F)(F)Cl)=N\Nc1ccccc1     class 0
32  COc1ccc(C2C3COc4ccccc4C3=NN2c2ccccc2)cc1 (stereo unspecified)     class 0
33  N#Cc1c(Cl)c2cc([N+](=O)[O-])ccc2n2c1nc1ccccc12     class 1
34  COc1ccc(N[S+]([O-])c2ccccc2OC)cc1 (stereo unspecified)     class 0
35  CC(C)(C)OC(=O)C1CCC/C1=N/Nc1ccc([N+](=O)[O-])cc1[N+](=O)[O-] (stereo unspecified)     class 0
36  C[n+]1c2ccccc2c(C(=O)NC(CCCNC(=N)N)C(=O)O)c2ccccc21 (stereo unspecified)     class 0
37            N#Cc1ccc(-c2nc3c(N)ncnc3o2)cc1     class 0
38           C=CCn1cnc2c(O)nc(Nc3ccccc3)nc21     class 0
39  CCOC(=O)C(=O)N1C(C)=C(C(=O)OCC)CC(C(=O)OCC)=C1C     class 0
40  CC(C)(C)OC(=O)N1C(=O)OC[C@@H]2C=C[C@@H]21     class 0
41  CC1CNc2ccccc2N=C1NN (stereo unspecified)     class 0
